Test: logP by HPLC on reversed-phase column (C 18), EEC Directive 79/831 Annex V.A8
Assay type: physicochemical
Method: In table 1, the logP values were determined in accordance with EEC Directive 79/831 Annex V.A8 by HPLC (High Performance Liquid Chromatography) on a reversed-phase column (C 18), using the method described below: Temperature: 40° C.; […]
Values of logP greater than or equal to 4 map to 1; values below map to -1.

Sample answers from the record:
[[record]]
molecule = "COC(CNC(=O)c1c(C(F)F)nn(C)c1Cl)c1ccc(Cl)cc1Cl (stereo not drawn)"
category_label = -1

[[record]]
molecule = "CN(CCc1ccccc1C(F)(F)F)C(=O)c1c(C(F)F)nn(C)c1Cl"
category_label = -1

[[record]]
molecule = "Cn1nc(C(F)F)c(C(=O)N(C[Si](C)(C)c2ccccc2)C2CCCCC2)c1F"
category_label = 1

[[record]]
molecule = "COC(CNC(=O)c1c(C(F)F)nn(C)c1F)c1cc(Cl)cc(Cl)c1 (stereo not drawn)"
category_label = -1

[[record]]
molecule = "Cc1cc(Br)ccc1C(=O)C(C)(C)NC(=O)c1c(C(F)F)nn(C)c1F"
category_label = -1


query: Reported logP at or above 4? Cc1cccnc1CC(NC(=O)c1c(C(F)F)nn(C)c1Cl)C(F)(F)F (stereo not drawn)
result: -1

query: Reported logP at or above 4? Cn1nc(C(F)F)c(C(=O)NCCc2csc3c2CCCC3)c1Cl
result: -1

query: Reported logP at or above 4? CC(Cc1ccccc1Cl)NC(=O)c1c(C(F)F)nn(C)c1Cl (stereo not drawn)
result: -1

###

Test system: Fusarium graminearum
Experiment: microbe, parasite or virus in culture
Type: cell-based
Conditions: 50 μM
Reported property: % Inhibition of fungal growth at 50 μM (%)
Answers are plain numbers, in %.

Recorded % Inhibition of fungal growth at 50 μM, per entry:
[[record]]
molecule = "Cn1nc(C(F)F)c(C(=O)N(C2CC2)C2CCCCC2(C)c2ccccc2)c1F (mixture of isomers)"
reading_unit = "%"
observed_value = 99

[[record]]
molecule = "CCOC(c1ccc(Cl)cc1Cl)C(C)NC(=O)c1c(C(F)F)nn(C)c1Cl (mixture of isomers)"
reading_unit = "%"
observed_value = 100

[[record]]
molecule = "CC(Cc1ncc(C(F)(F)F)cc1Cl)N(C(=O)c1c(C(F)F)nn(C)c1Cl)C1CC1 (centres unmarked)"
reading_unit = "%"
observed_value = 90

[[record]]
molecule = "COC(c1cc(Cl)cc(Cl)c1)C(C)NC(=O)c1c(C(F)F)nn(C)c1Cl (mixture of isomers)"
reading_unit = "%"
observed_value = 100

[[record]]
molecule = "CC(CNC(=O)c1c(C(F)F)nn(C)c1F)c1cc(Cl)ccc1Cl (centres unmarked)"
reading_unit = "%"
observed_value = 100


Please give % Inhibition of fungal growth at 50 μM, item by item, for the list that follows.
1. Cc1c(CCNC(=O)c2c(C(F)F)nn(C)c2F)sc2ccccc12
2. COC(c1cc(Cl)cc(Cl)c1)C(C)NC(=O)c1c(C(F)F)nn(C)c1F (mixture of isomers)
3. Cn1nc(C(F)F)c(C(=O)NCCc2ccc(Cl)cc2Cl)c1F
4. Cn1nc(C(F)F)c(C(=O)NCCc2cc(Cl)cc(Cl)c2)c1F

result:
93
100
100
99

Please give % Inhibition of fungal growth at 50 μM, item by item, for the list that follows.
1. CC(CNC(=O)c1c(C(F)F)nn(C)c1F)c1cccc(Cl)c1 (centres unmarked)
2. Cn1nc(C(F)F)c(C(=O)N(C[Si](C)(C)c2cccc(Cl)c2)C2CC2)c1F

result:
[100, 100]

Please give % Inhibition of fungal growth at 50 μM, item by item, for the list that follows.
1. CC(c1ccccc1Cl)C(C)N(C(=S)c1c(C(F)F)nn(C)c1F)C1CC1 (centres unmarked)
2. CC(Cc1c(F)cccc1Cl)N(C(=O)c1c(C(F)F)nn(C)c1F)C1CC1 (centres unmarked)
3. Cn1nc(C(F)F)c(C(=O)NC[Si](C)(C)c2ccccc2Cl)c1F
4. COCCN(CCc1ccncc1)C(=O)c1c(C(F)F)nn(C)c1Cl
5. Cn1nc(C(F)F)c(C(=O)NCCc2ccccc2Cl)c1F
6. CCN(CCc1ccc(Cl)cc1)C(=O)c1c(C(F)F)nn(C)c1F

result:
[90, 100, 76, 81, 99, 93]

###

Assay: logP by HPLC on reversed-phase column (C 18), EEC Directive 79/831 Annex V.A8
Assay type: physicochemical
Values of logP greater than or equal to 3 map to MET; values below map to NOT MET.

[[record]]
compound = "Cn1nc(C(F)F)c(C(=O)NC2CCCCC2c2ccccc2)c1Cl (centres unmarked) [Example 214]"
category_label = "MET"

[[record]]
compound = "Cn1nc(C(F)F)c(C(=O)NCC(C)(C)c2cccc(Cl)c2)c1F [Example 53]"
category_label = "MET"

[[record]]
compound = "Cn1nc(C(F)F)c(C(=O)N(CCc2ccncc2)C2CCCCC2)c1F [Example 200]"
category_label = "NOT MET"


Turning now to a further compound:
query: Reported logP at or above 3? CC(Cc1ccc(Oc2ccccc2)cc1)NC(=O)c1c(C(F)F)nn(C)c1F (centres unmarked) [Example 151]
result: MET

###

Exercise: state measured Efficacy for each of the compounds provided.
Test system: Alternaria solani
Assay: In vivo preventive test on Alternaria solani (tomato)
Conditions: 500 ppm of active ingredient, evaluated 7 days after inoculation
From the text: One day after this treatment, the plants are inoculated with an aqueous spore suspension of Alternaria solani.
Answers are plain numbers, in %.

Recorded Efficacy, per entry:
[[record]]
compound = "Cn1nc(C(F)F)c(C(=O)N(C[Si](C)(C)c2cc(Cl)cc(Cl)c2)C2CC2)c1F"
reported_property = "Efficacy"
observed_value = 100

[[record]]
compound = "CN(CCc1ccc(C(C)(C)C)cc1)C(=O)c1c(C(F)F)nn(C)c1F"
reported_property = "Efficacy"
observed_value = 100

[[record]]
compound = "Cn1nc(C(F)F)c(C(=O)NCCc2cccc(Cl)c2)c1Cl"
reported_property = "Efficacy"
observed_value = 100

[[record]]
compound = "CC(Cc1ccc(Cl)cc1Cl)NC(=S)c1c(C(F)F)nn(C)c1F (stereo not shown)"
reported_property = "Efficacy"
observed_value = 95

[[record]]
compound = "CC(Cc1c(F)cccc1F)N(C(=S)c1c(C(F)F)nn(C)c1F)C1CC1 (stereo not shown)"
reported_property = "Efficacy"
observed_value = 90


Please give Efficacy, item by item, for the list that follows.
1. CN(CCc1ccccc1C(F)(F)F)C(=O)c1c(C(F)F)nn(C)c1Cl
2. Cn1nc(C(F)F)c(C(=S)NC[Si](C)(C)c2ccccc2Cl)c1F

result:
[100, 70]

###

Test system: Uromyces appendiculatus
Assay: In vivo preventive test on Uromyces appendiculatus (beans)
Conditions: 100 ppm of active ingredient, evaluated 10 days after inoculation
Exercise: state measured Efficacy for each of the compounds provided.

[[record]]
compound = "Cn1nc(C(F)F)c(C(=O)N(C[Si](C)(C)c2cccc(Cl)c2)C2CC2)c1F"
observed_value = "100%"

[[record]]
compound = "Cn1nc(C(F)F)c(C(=O)N(C[Si](C)(C)c2ccc(Cl)cc2Cl)C2CC2)c1F"
observed_value = "100%"

[[record]]
compound = "CC(Cc1ncc(C(F)(F)F)cc1Cl)N(C(=O)c1c(C(F)F)nn(C)c1F)C1CC1 (stereo not shown)"
observed_value = "98%"


Please give Efficacy, item by item, for the list that follows.
1. Cn1nc(C(F)F)c(C(=O)NC2CC2c2ccc(Cl)cc2)c1F (stereo not shown)
2. CC(Cc1ccc(Cl)cc1Cl)NC(=S)c1c(C(F)F)nn(C)c1F (stereo not shown)
3. Cn1nc(C(F)F)c(C(=O)NCCc2ccc(Cl)cc2Cl)c1F
4. COC(CN(C(=O)c1c(C(F)F)nn(C)c1F)C1CC1)c1ccc(Cl)cc1Cl (stereo not shown)

result:
100%
75%
100%
80%

###

Test system: Fusarium graminearum
Experiment: microbe, parasite or virus in culture
Assay type: cell-based
Details: 50 μM
Reported property: % Inhibition of fungal growth at 50 μM (%)
Numbers only, in %.

[[record]]
compound = "CC(Cc1ccco1)NC(=O)c1c(C(F)F)nn(C)c1Cl (centres unmarked)"
reported_property = "% Inhibition of fungal growth at 50 μM"
reading_unit = "%"
observed_value = 76

[[record]]
compound = "CCC(CNC(=O)c1c(C(F)F)nn(C)c1Cl)c1ncc(C(F)(F)F)cc1Cl (centres unmarked)"
reported_property = "% Inhibition of fungal growth at 50 μM"
reading_unit = "%"
observed_value = 91

[[record]]
compound = "CC(Cc1ccccc1Cl)NC(=O)c1c(C(F)F)nn(C)c1Cl (centres unmarked)"
reported_property = "% Inhibition of fungal growth at 50 μM"
reading_unit = "%"
observed_value = 100

[[record]]
compound = "Cn1nc(C(F)F)c(C(=O)N(CCc2ccccc2)C2CC2)c1F"
reported_property = "% Inhibition of fungal growth at 50 μM"
reading_unit = "%"
observed_value = 100


In the following, a different compound is considered.
Measured % Inhibition of fungal growth at 50 μM, CN(CCc1ccccc1Cl)C(=O)c1c(C(F)F)nn(C)c1Cl : 94
